Hey, just so you know, these numbers are from ChEMBL document CHEMBL2057114.

- method-summary: Cmax in Sprague-Dawley rat at 50 mg/kg, po
- Type: ADME, organism-based
- Set-up: dose 50 mg/kg, route oral
- condition-set: in vivo
recorded-metric: Cmax
// return the numeric value with its unit appended

Input: Fill in the blank: the reported Cmax of "Cn1nc(C(F)(F)F)cc1C(=O)Nc1ccc(S(=O)(=O)N2CCCC[C@H]2CCN2CCOCC2)cc1" is ____.
Output: 823 ng/mL

###

- method-summary: Metabolic stability of the compound in human liver S9 fractions assessed as compound remaining after 1 hr
- Assay type: ADME, subcellular, S9 fraction
- condition-set: read-out: Stability
recorded-metric: remaining at 1 h (%)
Just the number please, in %, no unit attached.

Input: Entry "Cn1nc(C(F)(F)F)cc1C(=O)Nc1ccc(S(=O)(=O)N2CCCCC2)cc1" has what remaining at 1 h?
Output: 69

Input: Now give it for "Cn1nc(C(F)(F)F)cc1C(=O)Nc1ccc(S(=O)(=O)N2CCCC[C@H]2CCN2CCOCC2)cc1" too.
Output: 24

###

- method-summary: Cmax in Sprague-Dawley rat at 10 mg/kg, po
- Assay type: ADME, organism-based
- Set-up: dose 10 mg/kg, route oral
- condition-set: in vivo
recorded-metric: Cmax

Input: Field request: Cmax | item: "Cn1nc(C(F)(F)F)cc1C(=O)Nc1ccc(S(=O)(=O)N2CCCC[C@H]2CCN2CCOCC2)cc1"
Output: 195 ng/mL

###

- method-summary: Tmax in Sprague-Dawley rat at 50 mg/kg, po
- Assay type: ADME, organism-based
- Parameters: dose 50 mg/kg, route oral
- condition-set: in vivo
recorded-metric: Tmax (h)
State just the number; it will be interpreted in h.

Input: Given the entry "Cn1nc(C(F)(F)F)cc1C(=O)Nc1ccc(S(=O)(=O)N2CCCC[C@H]2CCN2CCOCC2)cc1" , report its measured Tmax.
Output: 1.5

###

- method-summary: AUC (0 to infinity) in Sprague-Dawley rat at 10 mg/kg, po
- Type: ADME, organism-based
- Parameters: time infinity, dose 10 mg/kg, route oral
- condition-set: plasma
recorded-metric: AUC(0-inf) (ng·h/mL)
The figure you give is taken to be in ng·h/mL; do not add the unit.

Input: Value lookup for AUC(0-inf); key = "Cn1nc(C(F)(F)F)cc1C(=O)Nc1ccc(S(=O)(=O)N2CCCC[C@H]2CCN2CCOCC2)cc1"
Output: 818

###

- Test system: Measles morbillivirus
- method-summary: Antiviral activity against Measles virus Alaska infected african green monkey Vero cells expressing human SLAM assessed as decrease in virus-induced cytopathic effect
- Assay type: functional, organism-based
recorded-metric: pEC50
Entry type: numeric. Quantity: pEC50, the -log10 of concentration in molar units.

Input: # input compound: "CC(=O)Oc1ccccc1S(=O)(=O)c1ccc(NC(=O)c2cc(C(F)(F)F)nn2C)cc1" ; wanted: its pEC50
Output: 5.35

Input: One more compound: Cn1nc(C(F)(F)F)cc1C(=O)Nc1ccc(S(=O)(=O)N2CCCCC2COCCO)cc1 (stereo not drawn)
Output: 5.08

Input: Queued: "Cn1nc(C(F)(F)F)cc1C(=O)Nc1ccc(S(=O)(=O)c2ccccc2CO)cc1"
Output: 5.46

Input: Also Cn1nc(C(F)(F)F)cc1C(=O)Nc1ccc(S(=O)(=O)N2CCCCC2CO)cc1 (stereo not drawn) , if possible.
Output: 5.55

Input: Next compound up: "Cn1nc(C(F)(F)F)cc1C(=O)Nc1ccc(S(=O)(=O)N2CCCC[C@H]2CCO)cc1"
Output: 5.51

Input: Then Cn1nc(C(F)(F)F)cc1C(=O)Nc1ccc(S(=O)(=O)N2CCCCC2/C=C/CO)cc1 (stereo not drawn) ?
Output: 5.43

Input: What do you have for CC(=O)NCC1CCCCN1S(=O)(=O)c1ccc(NC(=O)c2cc(C(F)(F)F)nn2C)cc1 (stereo not drawn) ?
Output: 4.85

Input: Param item: CCOC(=O)CCC1CCCCN1S(=O)(=O)c1ccc(NC(=O)c2cc(C(F)(F)F)nn2C)cc1 (stereo not drawn)
Output: 5.17

Input: Next up: Cn1nc(C(F)(F)F)cc1C(=O)Nc1ccc(S(=O)(=O)N2CCCCC2CCO)cc1 (stereo not drawn)
Output: 5.57

Input: Same question, "Cn1nc(C(F)(F)F)cc1C(=O)Nc1ccc(S(=O)(=O)N2CCCCC2)cc1" this time
Output: 5.70

Input: Again, but for Cn1nc(C(F)(F)F)cc1C(=O)Nc1ccc(S(=O)(=O)N2CCCCC2CN=[N+]=[N-])cc1 (stereo not drawn)
Output: 5.82

Input: Likewise for CCOC(=O)/C=C/C1CCCCN1S(=O)(=O)c1ccc(NC(=O)c2cc(C(F)(F)F)nn2C)cc1 (stereo not drawn) ?
Output: 5.17

Input: Next: Cn1nc(C(F)(F)F)cc1C(=O)Nc1ccc(S(=O)(=O)N2CCCCC2CCCO)cc1 (stereo not drawn)
Output: 5.57

Input: Note, next up: CCOC(=O)COCC1CCCCN1S(=O)(=O)c1ccc(NC(=O)c2cc(C(F)(F)F)nn2C)cc1 (stereo not drawn)
Output: 4.60

Input: Next entry: Cn1nc(C(F)(F)F)cc1C(=O)Nc1ccc(S(=O)(=O)N2CCCCC2CN2CCOCC2)cc1 (stereo not drawn)
Output: 5.03

Input: How about COCOCC1CCCN(S(=O)(=O)c2ccc(NC(=O)c3cc(C(F)(F)F)nn3C)cc2)C1 (stereo not drawn) ?
Output: 5.42

Input: Now the compound "COc1ccccc1S(=O)(=O)c1ccc(NC(=O)c2cc(C(F)(F)F)nn2C)cc1"
Output: 5.51

Input: Cool, now Cn1nc(C(F)(F)F)cc1C(=O)Nc1ccc(S(=O)(=O)N2CCCCC2CN)cc1 (stereo not drawn)
Output: 4.26

Input: "Cn1nc(C(F)(F)F)cc1C(=O)Nc1ccc(S(=O)(=O)c2ccccc2)cc1" ?
Output: 5.55

Input: Param item: "Cn1nc(C(F)(F)F)cc1C(=O)Nc1ccc(S(=O)(=O)c2ccccc2O)cc1"
Output: 5.35

Input: And then "COCOCC1CCN(S(=O)(=O)c2ccc(NC(=O)c3cc(C(F)(F)F)nn3C)cc2)CC1" , what is it?
Output: 4.80

Input: How about Cn1nc(C(F)(F)F)cc1C(=O)Nc1ccc(S(=O)(=O)N2CCCCC2CCN2CCOCC2)cc1 (stereo not drawn) ?
Output: 5.34

Input: Try this compound too: COCOCC1CCCCN1S(=O)(=O)c1ccc(NC(=O)c2cc(C(F)(F)F)nn2C)cc1 (stereo not drawn)
Output: 5.82

Input: Do the same for "Cn1nc(C(F)(F)F)cc1C(=O)Nc1ccc(S(=O)(=O)N2CCCC[C@H]2CCN2CCOCC2)cc1" please
Output: 5.60

Input: "Cn1nc(C(F)(F)F)cc1C(=O)Nc1ccc(S(=O)(=O)N2CCCC[C@@H]2CCO)cc1" , same question.
Output: 5.08
